Each recorded value in this set is attributed to patent US12685735B2.

measuredTarget: BRM (Homo sapiens, UniProt P51531)
Sequence (P51531 whole entry): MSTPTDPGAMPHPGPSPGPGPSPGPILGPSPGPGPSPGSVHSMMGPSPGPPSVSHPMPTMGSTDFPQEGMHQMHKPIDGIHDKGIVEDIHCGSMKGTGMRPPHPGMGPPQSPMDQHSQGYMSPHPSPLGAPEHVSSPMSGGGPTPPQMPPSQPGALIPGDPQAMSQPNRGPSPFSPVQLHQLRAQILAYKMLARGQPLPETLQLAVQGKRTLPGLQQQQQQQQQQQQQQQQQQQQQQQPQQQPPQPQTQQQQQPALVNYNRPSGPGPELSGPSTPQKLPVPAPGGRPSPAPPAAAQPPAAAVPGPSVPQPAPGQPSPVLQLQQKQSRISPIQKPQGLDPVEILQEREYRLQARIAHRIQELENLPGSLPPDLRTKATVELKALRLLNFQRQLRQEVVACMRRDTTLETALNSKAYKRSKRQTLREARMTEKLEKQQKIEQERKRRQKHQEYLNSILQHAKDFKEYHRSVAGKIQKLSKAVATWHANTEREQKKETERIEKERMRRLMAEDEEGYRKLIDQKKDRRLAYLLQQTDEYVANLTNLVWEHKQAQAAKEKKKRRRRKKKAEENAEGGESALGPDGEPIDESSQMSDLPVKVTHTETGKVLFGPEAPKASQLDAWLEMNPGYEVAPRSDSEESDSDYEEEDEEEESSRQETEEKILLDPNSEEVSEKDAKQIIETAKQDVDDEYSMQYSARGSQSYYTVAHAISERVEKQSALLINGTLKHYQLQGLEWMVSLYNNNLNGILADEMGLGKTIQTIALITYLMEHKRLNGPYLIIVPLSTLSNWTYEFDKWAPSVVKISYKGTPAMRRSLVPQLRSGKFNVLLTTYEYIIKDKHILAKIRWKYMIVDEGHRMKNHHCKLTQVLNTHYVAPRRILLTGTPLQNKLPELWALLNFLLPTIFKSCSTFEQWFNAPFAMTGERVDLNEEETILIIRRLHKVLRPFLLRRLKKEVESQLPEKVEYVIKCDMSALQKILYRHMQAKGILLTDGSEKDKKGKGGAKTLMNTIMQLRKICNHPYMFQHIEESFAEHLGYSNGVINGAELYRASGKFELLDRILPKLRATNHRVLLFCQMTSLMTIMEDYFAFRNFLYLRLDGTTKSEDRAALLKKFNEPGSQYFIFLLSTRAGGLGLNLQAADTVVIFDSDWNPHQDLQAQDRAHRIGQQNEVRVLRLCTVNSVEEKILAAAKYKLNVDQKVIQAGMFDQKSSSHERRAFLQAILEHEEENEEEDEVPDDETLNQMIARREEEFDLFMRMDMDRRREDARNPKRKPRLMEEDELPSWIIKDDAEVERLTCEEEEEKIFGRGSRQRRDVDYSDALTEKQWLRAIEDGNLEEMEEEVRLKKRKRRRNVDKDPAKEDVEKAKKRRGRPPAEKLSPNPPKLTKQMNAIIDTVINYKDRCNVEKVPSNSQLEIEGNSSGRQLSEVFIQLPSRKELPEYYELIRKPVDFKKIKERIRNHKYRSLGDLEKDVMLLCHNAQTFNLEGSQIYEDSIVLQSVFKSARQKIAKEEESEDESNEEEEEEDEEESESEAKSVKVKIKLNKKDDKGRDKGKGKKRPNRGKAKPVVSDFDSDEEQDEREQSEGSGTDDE
procedureText: ATPase catalytic activity assay of BRM (ADP-Glo)
Assay type: biochemical
conditionInfo: 30 nM BRM, 400 μM ATP
Reported BRM Max % Inhibition values follow for various compounds

Some compounds with recorded BRM Max % Inhibition:
CC1(C#N)CCOc2ccc(C(=O)NCC(=O)Nc3nc(-c4cccc([C@H]5CC5(F)F)c4)cs3)cc21 (stereo in doubt) = >95%
C[C@@H]1CN(c2cccc(-c3csc(NC(=O)CNC(=O)c4cccc([C@H]5COC[C@H]5O)c4)n3)c2)C[C@H](C)O1 (relative stereo) = >80%
CC1(C#N)CCOc2ccc(C(=O)NCC(=O)Nc3nc(-c4cccc(-c5ccncc5)c4)cs3)cc21 (stereo in doubt) = >95%
C[C@@H]1CN(c2cccc(-c3csc(NC(=O)CNC(=O)c4cccc(C5(F)CCOC5)c4)n3)n2)C[C@H](C)O1 (stereo in doubt) = >90%
CC1(C#N)CCOc2ccc(C(=O)NCC(=O)Nc3nc(-c4cccc(C(F)F)n4)cs3)cc21 (stereo in doubt) = >95%

Q: What is its BRM Max % Inhibition for BRM (Homo sapiens, UniProt P51531)? Entry: C[C@@H]1CN(c2cccc(-c3csc(NC(=O)CNC(=O)c4ccc5c(c4)[C@@](C)(O)COC5)n3)c2)C[C@H](C)O1
Result: >95%
